Test: Cytotoxicity against human SH-SY5Y cells assessed as cell viability at 5 uM after 24 hrs by MTT assay
Assay type: cell-based
Conditions: read-out: Activity

- compound: "COc1cc2c(cc1OC)C(Cc1ccc(OCCCCCCN3CCCCC3C)cc1)NCC2 (stereo unspecified)"
  viability at 24 h, 5 µM / %: 94.5

###

Biological target: Cholinesterase (Equus caballus, UniProt P81908)
Sequence (P81908 whole entry): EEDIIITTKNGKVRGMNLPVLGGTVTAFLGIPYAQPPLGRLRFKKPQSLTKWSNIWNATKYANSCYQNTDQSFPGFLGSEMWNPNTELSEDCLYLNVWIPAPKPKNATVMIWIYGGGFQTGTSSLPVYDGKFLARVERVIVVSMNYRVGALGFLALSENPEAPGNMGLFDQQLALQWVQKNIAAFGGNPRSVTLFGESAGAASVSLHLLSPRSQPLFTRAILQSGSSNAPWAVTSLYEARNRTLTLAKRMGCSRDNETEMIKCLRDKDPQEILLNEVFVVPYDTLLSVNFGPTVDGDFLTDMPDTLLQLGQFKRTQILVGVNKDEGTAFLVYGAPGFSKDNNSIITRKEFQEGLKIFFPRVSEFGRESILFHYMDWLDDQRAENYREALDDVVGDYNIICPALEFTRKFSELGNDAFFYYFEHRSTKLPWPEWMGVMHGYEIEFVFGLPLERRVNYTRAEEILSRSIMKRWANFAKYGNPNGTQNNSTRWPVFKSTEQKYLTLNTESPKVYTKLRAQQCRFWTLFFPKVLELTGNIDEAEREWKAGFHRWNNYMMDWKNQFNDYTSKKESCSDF
Experiment: Inhibition of BuChE in equine serum using S-butyrylthiocholine iodide as substrate preincubated with enzyme for 6 mins followed by substrate addition by Ellman's method
pIC50: −log10 of the molar value.
The reader will find reported pIC50 values listed item by item below.
experimental.readout: pIC50

- compound: "CCN(CC)CCCCOc1ccc(CC2NCCc3cc(OC)c(OC)cc32)cc1 (stereo unspecified)"
  target.or.system: "Cholinesterase (Equus caballus, UniProt P81908)"
  measured.number: 4.82
- compound: "COc1cc2c(cc1OC)C(Cc1ccc(OCCCCCCN3CCCCC3C)cc1)NCC2 (stereo unspecified)"
  target.or.system: "Cholinesterase (Equus caballus, UniProt P81908)"
  measured.number: 5.50
- compound: "CCCN(CCC)CCCCCCOc1ccc(CC2NCCc3cc(OC)c(OC)cc32)cc1 (stereo unspecified)"
  target.or.system: "Cholinesterase (Equus caballus, UniProt P81908)"
  measured.number: 5.36
- compound: "COc1cc2c(cc1OC)C(Cc1ccc(OCCCCCCN3CCCC3)cc1)NCC2 (stereo unspecified)"
  target.or.system: "Cholinesterase (Equus caballus, UniProt P81908)"
  measured.number: 5.63
- compound: "CCN(CC)CCCCCOc1ccc(CC2NCCc3cc(OC)c(OC)cc32)cc1 (stereo unspecified)"
  target.or.system: "Cholinesterase (Equus caballus, UniProt P81908)"
  measured.number: 4.99
- compound: "CCCCN(CCCC)CCCCCCOc1ccc(CC2NCCc3cc(OC)c(OC)cc32)cc1 (stereo unspecified)"
  target.or.system: "Cholinesterase (Equus caballus, UniProt P81908)"
  measured.number: 5.46
- compound: "CCN(CC)CCCCCCCOc1ccc(CC2NCCc3cc(OC)c(OC)cc32)cc1 (stereo unspecified)"
  target.or.system: "Cholinesterase (Equus caballus, UniProt P81908)"
  measured.number: 5.04
- compound: "CCN(CC)CCCCCCCCOc1ccc(CC2NCCc3cc(OC)c(OC)cc32)cc1 (stereo unspecified)"
  target.or.system: "Cholinesterase (Equus caballus, UniProt P81908)"
  measured.number: 4.70
- compound: "COc1cc2c(cc1OC)C(Cc1ccc(OCCCCCCN3CCC(O)(Cc4ccccc4)CC3)cc1)NCC2 (stereo unspecified)"
  target.or.system: "Cholinesterase (Equus caballus, UniProt P81908)"
  measured.number: 4.89
- compound: "COc1cc2c(cc1OC)C(Cc1ccc(OCCCCCCN3CCN(Cc4ccccc4)CC3)cc1)NCC2 (stereo unspecified)"
  target.or.system: "Cholinesterase (Equus caballus, UniProt P81908)"
  measured.number: 4.98
- compound: "CCN(CC)CCCCCCOc1ccc(CC2NCCc3cc(OC)c(OC)cc32)cc1 (stereo unspecified)"
  target.or.system: "Cholinesterase (Equus caballus, UniProt P81908)"
  measured.number: 5.31

###

Target: UniProt O42275
Sequence (O42275 whole entry): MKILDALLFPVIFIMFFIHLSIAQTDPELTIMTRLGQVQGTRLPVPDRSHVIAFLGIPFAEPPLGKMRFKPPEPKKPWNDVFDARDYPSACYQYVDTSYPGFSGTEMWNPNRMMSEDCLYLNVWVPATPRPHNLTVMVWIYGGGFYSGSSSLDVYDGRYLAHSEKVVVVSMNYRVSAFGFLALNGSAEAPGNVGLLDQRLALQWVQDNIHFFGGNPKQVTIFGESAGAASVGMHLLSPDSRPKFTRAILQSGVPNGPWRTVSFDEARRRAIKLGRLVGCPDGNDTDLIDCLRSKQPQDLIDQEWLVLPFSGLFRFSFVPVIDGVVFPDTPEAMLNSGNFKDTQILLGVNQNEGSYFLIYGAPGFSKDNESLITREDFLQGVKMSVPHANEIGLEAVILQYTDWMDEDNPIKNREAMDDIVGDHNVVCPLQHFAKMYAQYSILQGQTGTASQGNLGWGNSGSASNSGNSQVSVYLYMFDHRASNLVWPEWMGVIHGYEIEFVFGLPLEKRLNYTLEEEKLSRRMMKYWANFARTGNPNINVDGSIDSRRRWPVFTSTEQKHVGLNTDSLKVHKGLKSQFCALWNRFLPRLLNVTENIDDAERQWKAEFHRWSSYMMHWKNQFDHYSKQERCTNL
Checkbox rule: IC50 lower than 7 µM = yes (1); IC50 not lower than 7 µM = no (0).

- compound: "COc1cc2c(cc1OC)C(Cc1ccc(OCCCCCCN(C)C)cc1)NCC2 (stereo unspecified)"
  discrete.label: "yes (1)"
- compound: "CCN(CC)CCCCCCOc1ccc(CC2NCCc3cc(OC)c(OC)cc32)cc1 (stereo unspecified)"
  discrete.label: "yes (1)"
- compound: "COc1cc2c(cc1OC)C(Cc1ccc(OCCCCCCN3CCC(c4ccccc4)CC3)cc1)NCC2 (stereo unspecified)"
  discrete.label: "yes (1)"
- compound: "COc1cc2c(cc1OC)C(Cc1ccc(O)cc1)NCC2 (stereo unspecified)"
  discrete.label: "no (0)"
- compound: "COc1cc2c(cc1OC)C(Cc1ccc(OCCCCCCN3CCCCC3)cc1)NCC2 (stereo unspecified)"
  discrete.label: "yes (1)"
- compound: "CCN(CC)CCCCCCCOc1ccc(CC2NCCc3cc(OC)c(OC)cc32)cc1 (stereo unspecified)"
  discrete.label: "yes (1)"
- compound: "CCN(CC)CCCCCCCCOc1ccc(CC2NCCc3cc(OC)c(OC)cc32)cc1 (stereo unspecified)"
  discrete.label: "yes (1)"
- compound: "CCCN(CCC)CCCCCCOc1ccc(CC2NCCc3cc(OC)c(OC)cc32)cc1 (stereo unspecified)"
  discrete.label: "yes (1)"
- compound: "COc1cc2c(cc1OC)C(Cc1ccc(OCCCCCCN3CCN(c4ccccc4)CC3)cc1)NCC2 (stereo unspecified)"
  discrete.label: "no (0)"
- compound: "COc1cc2c(cc1OC)C(Cc1ccc(OCCCCCCN3CCC(O)CC3)cc1)NCC2 (stereo unspecified)"
  discrete.label: "no (0)"
